test system: Rhizoctonia solani; assay: Antifungal activity against Rhizoctonia solani assessed as inhibition of mycelium growth at 50 ug/ml relative to control; type: functional
Here, each record is paired with measured inhibition at 50 µg/mL data.
property.label: inhibition at 50 µg/mL (%)

1) Cc1ccc(/C(=C/C(=O)NCCc2ccccc2)c2ccnc(Cl)c2)cc1; 93.9
2) Cc1ccc(/C(=C/C(=O)NCCc2ccc(O)cc2)c2ccncc2)cc1C; 16.1
3) CCc1ccc(/C(=C/C(=O)NCCc2ccccc2)c2ccncc2)cc1; 9.68
4) N#Cc1c(Cl)c(Cl)c(Cl)c(C#N)c1Cl; 75.5
5) Cc1ccc(/C(=C/C(=O)NCCc2ccccc2)c2ccncc2)cc1; 15.5
6) CCc1ccc(/C(=C/C(=O)NCCc2ccc(O)cc2)c2ccnc(Cl)c2)cc1; 67.7
7) CCc1ccc(/C(=C/C(=O)NCCc2ccccc2)c2ccnc(Cl)c2)cc1; 22.4
8) Cc1ccc(/C(=C/C(=O)NCCc2ccccc2)c2ccnc(Cl)c2)c(C)c1; 4.52
9) COc1ccc(CCNC(=O)/C=C(\c2ccnc(Cl)c2)c2ccc(C)cc2C)cc1OC; 35.5
10) Cc1ccc(/C(=C/C(=O)NCCc2ccc(O)cc2)c2ccnc(Cl)c2)cc1; 72.9
11) CC(C)(C)c1ccc(/C(=C/C(=O)NCCc2ccc(O)cc2)c2ccnc(Cl)c2)cc1; 9.03
12) Cc1ccc(/C(=C/C(=O)NCCc2ccc(O)cc2)c2ccnc(Cl)c2)cc1C; 91
13) Cc1ccc(/C(=C/C(=O)NCCc2ccccc2)c2ccncc2)cc1C; 3.87
14) COC(=O)Nc1nc2ccccc2[nH]1; 100
15) CO/C=C(/C(=O)OC)c1ccccc1Oc1cc(Oc2ccccc2C#N)ncn1; 89
16) CC(C)(C)c1ccc(/C(=C/C(=O)N2CCOCC2)c2ccnc(Cl)c2)cc1; 97.2
17) Cc1ccc(/C(=C/C(=O)NCCc2ccccc2)c2ccnc(Cl)c2)cc1C; 76.8
18) COc1ccc(/C(=C/C(=O)NCCc2ccccc2)c2ccnc(Cl)c2)cc1; 13.6
19) Cc1ccc(/C(=C/C(=O)NCCc2ccc(O)cc2)c2ccnc(Cl)c2)c(C)c1; 13.6
20) COc1ccc(CCNC(=O)/C=C(\c2ccncc2)c2ccc(C)c(C)c2)cc1OC; 5.81
21) COc1ccc(CCNC(=O)/C=C(/c2ccc(C(C)(C)C)cc2)c2ccnc(Cl)c2)cc1OC; 14.8
22) Cc1ccc(/C(=C/C(=O)NCCc2ccc(O)cc2)c2ccncc2)cc1; 10.3
23) COc1ccc(CCNC(=O)/C=C(\c2ccnc(Cl)c2)c2ccc(C)c(C)c2)cc1OC; 23.8
24) COc1ccc(CCNC(=O)/C=C(/c2ccc(C)cc2)c2ccnc(Cl)c2)cc1OC; 82.6
